experiment: NCI Yeast Anticancer Drug Screen. Data for the cln2 rad14 strain (AID 165);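 also: 0% = growth equal to vehicle treated cultures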; settings: S. cerevisiae cln2 rad14 strain, at 50.0 µM, hits give high values
The panel holds about 79,000 compounds, 15% with a hit somewhere; the sample as a whole holds those more often.
I'd be grateful if you could share measured growth inhibition for these entries.
Provide the reading as a plain figure in %.

Prompt line: # query: growth inhibition of entry "CC(=O)OCCOCNC(=S)N/N=C(\C)c1cnccn1"
Response line: 60.8

Prompt line: Now this one: "COC(=O)c1cc(-c2ccc(C)cc2)[nH]c(=O)c1C#N"
Response line: 66

Prompt line: Now this one: "Fc1ccc(NC(=S)SCc2ccc3c(c2)OCO3)cc1F"
Response line: 91.8

Prompt line: Now this one: "COc1ccc(OC)c2cc3ccccc3cc12"
Response line: 39.6

Prompt line: Now this one: "CC(C)/C(Cl)=N\OC(=O)Nc1ccc(F)cc1"
Response line: 38.8

Prompt line: Now this one: "Cc1ccc(Cl)c2[nH]c(-c3ccccc3)cc(=O)c12"
Response line: 13.4

Prompt line: Now this one: "COc1ccc(N=C2C(=O)Nc3ccc(Br)cc32)cc1"
Response line: -7.9

Prompt line: Now this one: O=C1OC(CCl)CN1/N=C/c1ccc([N+](=O)[O-])o1 (stereo unspecified)
Response line: 47.1

Prompt line: Now this one: "O=C(O)c1ccccc1NC(=S)c1ccccc1"
Response line: 1

Prompt line: Now this one: "CN=C(N)N/N=C/c1ccc2c(c1)Cc1ccccc1-2"
Response line: 19.8

Prompt line: Now this one: "COc1ccc2ccc3ccccc3c2c1C=O"
Response line: 17.6

Prompt line: Now this one: C=CC(C)(O)CCC1C(=C)C(O)CC2C(C)(C)CCCC12C (stereo unspecified)
Response line: 16.7

Prompt line: Now this one: "COc1ccc(/C=C/C(=O)C(C)(C)Br)cc1"
Response line: 91.5

Prompt line: Now this one: "Cn1c(N)nc(-c2ccc(Cl)cc2)c1SSc1c(-c2ccc(Cl)cc2)nc(N)n1C"
Response line: 92

Prompt line: Now this one: CCOP(=O)(OCC)C(Cc1ccccc1)N=C(c1ccccc1)c1ccccc1 (stereo unspecified)
Response line: 97.8

Prompt line: Now this one: "COc1ccc2nc3cccc([N+](=O)[O-])c3c(NCCN(CCO)CCO)c2c1"
Response line: 83.2

Prompt line: Now this one: "c1ccc(-c2ccnc3c2ccc2c(-c4ccccc4)ccnc23)cc1"
Response line: 92

Prompt line: Now this one: CCC[CH2][Ge]([CH2]CCC)([CH2]CCC)[O]C(=O)C(OC)c1ccccc1 (stereo unspecified)
Response line: 66.5

Prompt line: Now this one: "CCOC(=O)c1cc([N+](=O)[O-])cc([N+](=O)[O-])c1Sc1ncnc2nc[nH]c12"
Response line: 77.2

Prompt line: Now this one: "Cc1ccc(S(=O)(=O)Oc2cc(Cl)c(Cl)cc2Cl)cc1"
Response line: -9.8

Prompt line: Now this one: "OC(c1ccc(F)cc1)(c1ccc(F)cc1)C1CC1"
Response line: 28.9

Prompt line: Now this one: "CCN(CC)CCC(=O)c1ccc(Oc2ccc(F)cc2)cc1"
Response line: 32.9

Prompt line: Now this one: CCCCCCCCCCC1CCC(=O)O1 (stereo unspecified)
Response line: 97.7

Prompt line: Now this one: CCCCCCCCCCCCCC[N+](C)(CC(=O)[O-])Cc1ccccc1 (stereo unspecified)
Response line: 93.8

Prompt line: Now this one: "CCC/C(Cl)=N\OC(=O)Nc1cccc(C(F)(F)F)c1"
Response line: 89.7

Prompt line: Now this one: O=C(O)C1OC1(c1cccc(Cl)c1)c1ccccc1Cl (stereo unspecified)
Response line: 90.7
